- Test system: A549
- EXPERIMENT SUMMARY: Antiproliferative activity against human A549 cells after 120 hrs by WST-8 assay
- Type: functional, cell-based
- EXPERIMENTAL CONTEXT: A549, 120 h
pIC50: −log10 of the molar value.
Quick rule: pIC50 of at least 7 means 1, below that means 0.

Use these answered entries as a reference point.
CCC[C@H]1C[C@@H](OC)C/C(C)=C\[C@@H]2C[C@@H](OC(=O)/C(C)=C\CCc3coc(/C=C\CNC(=O)OC)n3)C[C@H](CC(=O)O1)O2	1
CCC[C@H]1C[C@@H](OC)C/C(C)=C\[C@@H]2C[C@@H](OC(=O)CCCCc3coc(CCCNC(=O)OC)n3)C[C@H](CC(=O)O1)O2	0
CCC[C@H]1C[C@@H](OC)C/C(C)=C\[C@@H]2C[C@@H](OC(=O)/C=C(/C)CCc3coc(/C=C\CNC(=O)OC)n3)C[C@H](CC(=O)O1)O2	1

In: Tell me whether pIC50 is at least 7 here: `CCC[C@H]1C[C@@H](OC)C/C(C)=C\[C@@H]2C[C@@H](OC(=O)/C=C\CCc3coc(C=C(C)C)n3)C[C@H](CC(=O)O1)O2`
Out: 0

In: Now this one: `C/C=C\c1nc(CC/C=C\C(=O)O[C@H]2C[C@@H]3CC(=O)O[C@@H](CCC)C[C@@H](OC)C/C(C)=C\[C@H](C2)O3)co1`
Out: 0
